- assay_text: Lyophilisation solubility assay (Lysa)
- Format: physicochemical
- condition_summary: pH 6.5, aqueous buffer, thermodynamic from solid
solubility thermodynamic values, listed per item
readout_label: solubility thermodynamic

>>> val("COC(=O)C1=C(CN2[C@@H]3COC[C@H]2C[C@H](CC(=O)O)C3)NC(c2nccs2)=N[C@H]1c1cccc(F)c1Br")
"> 621 µg/mL"
>>> val("COC(=O)C1=C(CN2C3CC(F)(F)C2C[C@@](O)(CC(=O)O)C3)NC(c2nccs2)=N[C@H]1c1cccc(F)c1Cl (single isomer, unassigned)")
"317 µg/mL"
>>> val("COC(=O)C1=C(CN2[C@H]3CC[C@]2(C(=O)O)COC3)NC(c2nccs2)=N[C@H]1c1ccc(F)c(F)c1C")
"> 643 µg/mL"
